Tested on: 786-0
Test: NCI tumour cell line growth inhibition, 48 h
Activity calls are given as the source filed them. No stated cut-off is given here; in the data, active = GI50 up to about 1.1 µM and inactive = higher.
Give measured GI50 for each item. Keep answers brief.

# get_value(readout= GI50, system= 786-0) for Cc1cc2c(c(C(=O)O)c1C)-c1cccc(F)c1C2=O
> 100 µM (inactive)

Form field: GI50 recorded for COc1nc(O)nc2c1C(c1ccc([N+](=O)[O-])cc1)c1c(OC)nc(O)nc1O2 with 786-0 (enter value)
> 100 µM (inactive)

Request: GI50, test system 786-0, entry CN(C)CCNC1=Nc2ccccc2C(=O)N2CSCC12 (stereo unspecified)
> 100 µM (inactive)

State its GI50 on 786-0: Cc1cccc(C)c1NC(=O)CCCC(=O)C1CC(=O)CCC1=O (stereo unspecified)
> 100 µM (inactive)

Recall the recorded GI50 for COc1cc(OC)c(C2c3cc4c(cc3OC(N3CCCC3)C2C)OCO4)c(OC)c1 (stereo unspecified) with 786-0 and state it.
15.9 µM (inactive)

// lookup GI50 | system=786-0 | key= CC(c1ccccc1)C(O)S(=O)(=O)O (stereo unspecified)
> 100 µM (inactive)
